Property: IC50; scope: individual molecules
assay-system: active p38 alpha enzyme (Upstate Biotechnology) (Homo sapiens, UniProt Q16539)
Construct: purchased Upstate Biotechnology
Sequence (Q16539 whole entry): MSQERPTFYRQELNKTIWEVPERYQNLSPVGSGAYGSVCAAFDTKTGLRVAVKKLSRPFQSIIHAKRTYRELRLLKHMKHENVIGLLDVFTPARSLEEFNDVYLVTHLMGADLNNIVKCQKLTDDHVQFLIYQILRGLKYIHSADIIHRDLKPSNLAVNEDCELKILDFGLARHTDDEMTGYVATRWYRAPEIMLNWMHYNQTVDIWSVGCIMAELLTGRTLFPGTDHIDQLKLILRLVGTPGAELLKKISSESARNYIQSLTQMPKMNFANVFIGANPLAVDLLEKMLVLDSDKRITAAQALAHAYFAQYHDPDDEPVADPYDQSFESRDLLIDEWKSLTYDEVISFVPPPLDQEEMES
assay-text: p38α biochemical assay (ATP turnover, luminescent detection, Cambrex PKlight)
experimental-parameters: p38α kinase; Table 1 Biological Activity
Method: The p38α biochemical assay employed is based on measurement of total ATP turnover following enzyme incubation with substrate in the presence of ATP with the use of a luminescent detection reagent (Cambrex PKlight). […] The final volume was 7.5005 μL as prepared prepared from the addition of 5 ul of kinase reaction (p38 alpah+MapkapK2+ATP) with 0.0005 μL compound dissolved in DMSO, and 2.5 ul of the detection reagent. […] Assay is read using a Perkin Elmer Viewlux.

# molecule, assay-system, IC50
measured = [
    ("Cc1ccc(NCc2onc(-c3ccc(F)cc3)c2-c2nc(C(=O)NC(C)C)cs2)cc1", "active p38 alpha enzyme (Upstate Biotechnology) (Homo sapiens, UniProt Q16539)", "> 1000 nM"),
    ("COCC(C)NCc1nc(-c2ccc(F)cc2)c(-c2nc(C(=O)NC(C)C)cs2)o1 (stereo not shown)", "active p38 alpha enzyme (Upstate Biotechnology) (Homo sapiens, UniProt Q16539)", "> 1000 nM"),
    ("CC(=O)N[C@H]1CCN(Cc2nc(-c3ccc(F)cc3)c(-c3nc(C(=O)NC(C)C)cs3)o2)C1", "active p38 alpha enzyme (Upstate Biotechnology) (Homo sapiens, UniProt Q16539)", "> 1000 nM"),
    ("COCC(C)NC(=O)c1csc(-c2c(-c3ccc(F)cc3)n[nH]c2C2CCNCC2)n1 (stereo not shown)", "active p38 alpha enzyme (Upstate Biotechnology) (Homo sapiens, UniProt Q16539)", "> 1000 nM"),
    ("CC1CCN(Cc2nc(-c3ccc(F)cc3)c(-c3nc(C(=O)NC(C)C)cs3)o2)CC1", "active p38 alpha enzyme (Upstate Biotechnology) (Homo sapiens, UniProt Q16539)", "> 1000 nM"),
    ("Cc1nc(-c2ccc(F)cc2)c(-c2nc(C(=O)NCCC3CCCN3C)cs2)s1 (stereo not shown)", "active p38 alpha enzyme (Upstate Biotechnology) (Homo sapiens, UniProt Q16539)", "> 1000 nM"),
    ("COc1ccc(NCc2onc(-c3ccc(F)cc3)c2-c2nc(C(=O)NC(C)C)cs2)cc1", "active p38 alpha enzyme (Upstate Biotechnology) (Homo sapiens, UniProt Q16539)", "> 1000 nM"),
    ("CC(C)NC(=O)c1csc(-c2c(-c3ccc(F)cc3)noc2CNCc2ccco2)n1", "active p38 alpha enzyme (Upstate Biotechnology) (Homo sapiens, UniProt Q16539)", "> 1000 nM"),
    ("Cc1nc(-c2ccc(F)cc2)c(-c2nc(C(=O)NCCCN3CCOCC3)cs2)s1", "active p38 alpha enzyme (Upstate Biotechnology) (Homo sapiens, UniProt Q16539)", "≤ 1000 nM"),
    ("CC(C)NC(=O)c1csc(-c2c(-c3ccc(F)cc3)noc2CNc2ccc3c(c2)CCC3)n1", "active p38 alpha enzyme (Upstate Biotechnology) (Homo sapiens, UniProt Q16539)", "> 1000 nM"),
    ("CC(C)NC(=O)c1csc(-c2c(-c3ccc(F)cc3)noc2CN2CCCC3CCCCC32)n1 (stereo not shown)", "active p38 alpha enzyme (Upstate Biotechnology) (Homo sapiens, UniProt Q16539)", "> 1000 nM"),
    ("Cc1nc(-c2ccc(F)cc2)c(-c2nc(C(=O)NCc3ccc(C(C)(C)C)cc3)cs2)s1", "active p38 alpha enzyme (Upstate Biotechnology) (Homo sapiens, UniProt Q16539)", "> 1000 nM"),
    ("CC(=O)N1CCC(n2cnc(-c3ccc(F)cc3)c2-c2nc(C(=O)NC(C)C)cs2)CC1", "active p38 alpha enzyme (Upstate Biotechnology) (Homo sapiens, UniProt Q16539)", "≤ 1000 nM"),
    ("COc1cc(CNC(=O)c2csc(-c3sc(C)nc3-c3ccc(F)cc3)n2)cc(OC)c1", "active p38 alpha enzyme (Upstate Biotechnology) (Homo sapiens, UniProt Q16539)", "≤ 1000 nM"),
    ("CC(C)NC(=O)c1csc(-c2oc(CN(Cc3ccccc3)C(C)C)nc2-c2ccc(F)cc2)n1", "active p38 alpha enzyme (Upstate Biotechnology) (Homo sapiens, UniProt Q16539)", "> 1000 nM"),
    ("CC(C)NC(=O)c1csc(-c2oc(CN3CCN(c4ccc([N+](=O)[O-])cc4)CC3)nc2-c2ccc(F)cc2)n1", "active p38 alpha enzyme (Upstate Biotechnology) (Homo sapiens, UniProt Q16539)", "> 1000 nM"),
]

====

assay-system: active p38 alpha enzyme (Upstate Biotechnology) (Homo sapiens)
Construct: purchased Upstate Biotechnology
assay-text: p38α biochemical assay (ATP turnover, luminescent detection, Cambrex PKlight)
experimental-parameters: p38α biochemical assay, Table 1 Biological Activity
experimental-endpoint: IC50

# compound, measured-result
records = [
    ("CC(C)NC(=O)c1csc(-c2oc(CNC(=O)c3cc(F)ccc3[N+](=O)[O-])nc2-c2ccc(F)cc2)n1 [Example 236]", "≤ 1 µM"),
    ("CC(C)NC(=O)c1csc(-c2c(-c3ccc(F)cc3)noc2CNC(=O)c2cc(F)c(Cl)cc2F)n1 [Example 734]", "> 1 µM"),
    ("CC(C)NC(=O)c1csc(-c2oc(CNC(=O)Cc3ccc(C(F)(F)F)cc3)nc2-c2ccc(F)cc2)n1 [Example 279]", "> 1 µM"),
    ("CC(C)NC(=O)c1csc(-c2oc(CN3CCN(C(=O)C(C)NC(=O)OC(C)(C)C)CC3)nc2-c2ccc(F)cc2)n1 (centres unmarked) [Example 485]", "> 1 µM"),
    ("CC(C)NC(=O)c1csc(-c2c(-c3ccc(F)cc3)noc2CNC(=O)c2ccc(Cl)cc2O)n1 [Example 670]", "> 1 µM"),
    ("CC(C)NC(=O)c1csc(-c2oc(CNC(=O)C3CCCCC3)nc2-c2ccc(F)cc2)n1 [Example 118]", "≤ 1 µM"),
    ("CC(C)NC(=O)c1csc(-c2c(-c3ccc(F)cc3)noc2CNC(=O)c2cccnc2Cl)n1 [Example 628]", "> 1 µM"),
    ("CC(C)NC(=O)c1csc(-c2c(-c3ccc(F)cc3)noc2CNC(C=O)c2ccc3cc(O)ccc3c2)n1 (centres unmarked) [Example 717]", "> 1 µM"),
    ("CC(C)Cc1ccc(C(C)C(=O)NCc2nc(-c3ccc(F)cc3)c(-c3nc(C(=O)NC(C)C)cs3)o2)cc1 (centres unmarked) [Example 280]", "> 1 µM"),
    ("COc1cc(OC)c(C(=O)NCc2nc(-c3ccc(F)cc3)c(-c3nc(C(=O)NC(C)C)cs3)o2)cc1OC [Example 284]", "> 1 µM"),
    ("CC(C)NC(=O)c1csc(-c2c(-c3ccc(F)cc3)noc2CNC(=O)c2ccccc2Oc2ccccc2)n1 [Example 764]", "> 1 µM"),
    ("CC(C)NC(=O)c1csc(-c2oc(CNC(=O)c3ccc(-c4ccc(O)cc4)cc3)nc2-c2ccc(F)cc2)n1 [Example 291]", "≤ 1 µM"),
    ("CCNC(=O)c1csc(-c2c(-c3ccc(F)cc3)n[nH]c2C2CCNCC2)n1 [Example 63]", "≤ 1 µM"),
    ("CC(C)NC(=O)c1csc(-c2c(-c3ccc(F)cc3)noc2CNC(=O)C(O)CCl)n1 (centres unmarked) [Example 590]", "≤ 1 µM"),
    ("CC(C)NC(=O)c1csc(-c2oc(CNC(=O)c3ccc(F)cc3)nc2-c2ccc(F)cc2)n1 [Example 126]", "> 1 µM"),
    ("CC(C)NC(=O)c1csc(-c2oc(CNC(=O)c3ccc(C(C)(C)C)cc3)nc2-c2ccc(F)cc2)n1 [Example 209]", "> 1 µM"),
    ("CC(C)NC(=O)c1csc(-c2oc(CN3CCN(C(=O)c4cn(C)cn4)CC3)nc2-c2ccc(F)cc2)n1 [Example 354]", "≤ 1 µM"),
    ("CC(C)NC(=O)c1csc(-c2oc(CN3CCN(C(=O)c4cc([N+](=O)[O-])ccc4F)CC3)nc2-c2ccc(F)cc2)n1 [Example 472]", "> 1 µM"),
    ("CCC(=O)C(=O)NCc1onc(-c2ccc(F)cc2)c1-c1nc(C(=O)NC(C)C)cs1 [Example 577]", "> 1 µM"),
    ("CCCOc1ccc(C(=O)NCc2onc(-c3ccc(F)cc3)c2-c2nc(C(=O)NC(C)C)cs2)cc1 [Example 693]", "> 1 µM"),
    ("CC(C)NC(=O)c1csc(-c2c(-c3ccc(F)cc3)noc2CNC(=O)Cc2ccc(O)c(Cl)c2)n1 [Example 715]", "> 1 µM"),
    ("Cc1onc(-c2ccc(Cl)cc2)c1-c1ccn(C(=O)NC(C)CO)n1 (centres unmarked) [Example 6]", "≤ 1 µM"),
    ("CC(C)NC(=O)c1csc(-c2oc(CNC(=O)c3ccc4ccccc4c3O)nc2-c2ccc(F)cc2)n1 [Example 245]", "> 1 µM"),
    ("CC(C)NC(=O)c1csc(-c2oc(CNC(=O)c3ccc(Cl)c([N+](=O)[O-])c3)nc2-c2ccc(F)cc2)n1 [Example 274]", "> 1 µM"),
    ("CC(C)NC(=O)c1csc(-c2c(-c3ccc(F)cc3)noc2CNC(=O)c2ccc3ncccc3c2)n1 [Example 672]", "> 1 µM"),
    ("CC(C)NC(=O)c1csc(-c2c(-c3ccc(F)cc3)noc2CNC(=O)c2c(Cl)cc(Cl)cc2Cl)n1 [Example 781]", "> 1 µM"),
    ("CC(C)NC(=O)c1csc(-c2oc(CN3CCN(C(=O)C4CCCCN4C(=O)OC(C)(C)C)CC3)nc2-c2ccc(F)cc2)n1 (centres unmarked) [Example 548]", "> 1 µM"),
    ("CC(C)NC(=O)c1csc(-c2oc(CNC(=O)c3cccc(C#N)c3)nc2-c2ccc(F)cc2)n1 [Example 130]", "≤ 1 µM"),
    ("CC(=O)Oc1ccc(C(=O)NCc2onc(-c3ccc(F)cc3)c2-c2nc(C(=O)NC(C)C)cs2)cc1 [Example 688]", "> 1 µM"),
]
